assay-remarks: gradient 5% acetonitrile 3 min, to 50% in 2 min, to 85% in 15 min, held 3 min, 100 µL/min
test-settings: column: Zorbax Extend-C18 2.1 x 50 mm; eluents: water / acetonitrile, 0.1% formic acid
assay-metric: RP-LC retention time (s)

Please review the entries below; each comes with its answer.
molecule: Cc1nn2c(CNS(=O)(=O)Cc3cccc(F)c3)c(-c3ccccc3)nc2s1
unit-label: s
measured-number: 935
--
molecule: CCN(CC)CCCNC(=O)C1c2cc(OC)c(OC)cc2C(=O)N2CCc3ccccc3C12 (centres undefined)
unit-label: s
measured-number: 608
--
molecule: Cc1ccccc1CNS(=O)(=O)c1ccc2c(c1)C(=O)N(C)c1ncccc1O2
unit-label: s
measured-number: 1010
--
molecule: CCOc1ccc(CCNC(=O)c2sc(-c3cccn3CC)nc2C)cc1OCC
unit-label: s
measured-number: 1140
--
molecule: Cc1cccc(CN2CCCn3nc(C(=O)NCc4ccco4)cc3C2=O)c1
unit-label: s
measured-number: 810
--
molecule: CCC(C)(C)NS(=O)(=O)c1cc(-c2nc(C)cs2)n(CC(=O)N2CCCC2)c1
unit-label: s
measured-number: 967
--
molecule: O=S(=O)(NCc1cccs1)c1cc(-c2noc(C3CCCC3)n2)cs1
unit-label: s
measured-number: 1110
--
molecule: O=C1NC(C(=O)NCCCn2cccn2)Cn2cccc21 (centres undefined)
unit-label: s
measured-number: 585

1 = COc1cccc(CN2N=C(C(=O)N3CCOCC3)S(=O)(=O)c3cc(Cl)ccc32)c1
2 = CCCCn1c(SCc2nc(-c3ccc(OCC)cc3)no2)nc2cc3c(cc2c1=O)OCO3
# input Kindly identify which of 1 and 2 has the larger recorded RP-LC retention time value. Write down the label of the entry you select.
# output 2

P = NC(=O)Cn1c2ccccc2c2ncn(Cc3nc(-c4ccccc4)no3)c(=O)c21
Q = CC1Oc2ccccc2N(Cc2nc(-c3ccc(Cl)c(F)c3)no2)C1=O (centres undefined)
# input Compare P and Q and name the one whose reported RP-LC retention time is smaller. Give the label under which the chosen entry appears.
# output P
(P: 730 s, Q: 1190 s)

====

assay-remarks: gradient 5% acetonitrile 3 min, to 50% in 2 min, to 85% in 15 min, held 3 min, 100 µL/min
test-settings: column: Zorbax Extend-C18 2.1 x 50 mm; eluents: water / acetonitrile, 0.1% formic acid
assay-metric: RP-LC retention time (s)

molecule: O=C(Nc1ccccc1)N1CCc2nn(Cc3ccccc3)c(=O)n2CC1
RP-LC retention time (s): 736
//
molecule: O=C(CSc1nc2ncccc2[nH]1)Nc1ccc(Br)cc1F
RP-LC retention time (s): 720
//
molecule: O=C(Cc1ccsc1)Nc1cnc(N2CCOCC2)nc1
RP-LC retention time (s): 686
//
molecule: Fc1ccc(Cc2nc(-c3ccnc(N4CCCC4)c3)no2)cc1
RP-LC retention time (s): 708
//
molecule: COc1ccc(NC(=O)NCCc2cn(C)c3ncccc23)c(OC)c1
RP-LC retention time (s): 640
//
molecule: Cc1cc(N2CCN(C)CC2)nc2ccc(NC(=O)Nc3ccc(Br)cc3)cc12
RP-LC retention time (s): 609
//
molecule: Cc1cc2c(cc1S(=O)(=O)N1CCCC1C(=O)Nc1ccccc1F)OC(C)C(=O)N2 (stereo unspecified)
RP-LC retention time (s): 809
//
molecule: CCCCNC(=O)C(C)n1nc(C)c2nn(-c3ccccc3)c(C)c2c1=O (stereo unspecified)
RP-LC retention time (s): 864

a = Cc1cccc(CN2CCCN(c3ncccc3-c3nc(C4CC4)no3)CC2)c1
b = Cc1ccc(Cl)cc1NC(=O)Cc1c(C)nn(-c2nc(-c3ccccc3)cs2)c1C
# input # argmax over RP-LC retention time for candidates a and b // output: label of the selected item
# output b
(b: 1230 s, a: 732 s)

Recorded values, source the METLIN SMRT retention time set (Domingo-Almenara et al. 2019).
